Where do the numbers come from? From ChEMBL document CHEMBL4304836.

Tested on: Mycobacterium tuberculosis
Assay: Antimycobacterial activity against Mycobacterium tuberculosis H37Rv assessed as reduction in bacterial cell growth incubated for 14 days by broth dilution method
Type: functional
Settings: 336 h
MIC: recorded values

These recorded examples may help you get a feel for the data.
Compound | Measurement Name | Experimental Value
CCN(CC)S(=O)(=NSC(F)(F)F)c1ccc([N+](=O)[O-])cc1 (configuration not stated) | MIC | 16 to 32 µg/mL
N=S(=O)(c1ccc([N+](=O)[O-])cc1)N1CCCC1 (configuration not stated) | MIC | > 64 µg/mL
CS(=O)(=NC(F)(F)F)c1ccccc1 (configuration not stated) | MIC | > 64 µg/mL
N=S(=O)(c1ccccc1)N1CCOCC1 (configuration not stated) | MIC | > 64 µg/mL
Cc1ccc(S(=O)(=NSC(F)(F)F)N2CCOCC2)cc1 (configuration not stated) | MIC | 8 to 16 µg/mL
O=[N+]([O-])c1ccc(S(=O)(=NSC(F)(F)F)N2CCCC2)cc1 (configuration not stated) | MIC | 16 to 32 µg/mL

## Input Annotate the compound O=[N+]([O-])c1ccc(S(=O)(=NSC(F)(F)F)N2CCOCC2)cc1 (configuration not stated) with its measured MIC.
## Output 16 to 32 µg/mL
